assay system: Ba/F3 EML4-ALK v1 I1171N/D1203N (Homo sapiens (Human), UniProt Q9HC35+Q9UM73, D1203N/I1171N)
Sequence (Q9UM73 other isoform, or with tags, fused parts or gaps I1171N/D1203N): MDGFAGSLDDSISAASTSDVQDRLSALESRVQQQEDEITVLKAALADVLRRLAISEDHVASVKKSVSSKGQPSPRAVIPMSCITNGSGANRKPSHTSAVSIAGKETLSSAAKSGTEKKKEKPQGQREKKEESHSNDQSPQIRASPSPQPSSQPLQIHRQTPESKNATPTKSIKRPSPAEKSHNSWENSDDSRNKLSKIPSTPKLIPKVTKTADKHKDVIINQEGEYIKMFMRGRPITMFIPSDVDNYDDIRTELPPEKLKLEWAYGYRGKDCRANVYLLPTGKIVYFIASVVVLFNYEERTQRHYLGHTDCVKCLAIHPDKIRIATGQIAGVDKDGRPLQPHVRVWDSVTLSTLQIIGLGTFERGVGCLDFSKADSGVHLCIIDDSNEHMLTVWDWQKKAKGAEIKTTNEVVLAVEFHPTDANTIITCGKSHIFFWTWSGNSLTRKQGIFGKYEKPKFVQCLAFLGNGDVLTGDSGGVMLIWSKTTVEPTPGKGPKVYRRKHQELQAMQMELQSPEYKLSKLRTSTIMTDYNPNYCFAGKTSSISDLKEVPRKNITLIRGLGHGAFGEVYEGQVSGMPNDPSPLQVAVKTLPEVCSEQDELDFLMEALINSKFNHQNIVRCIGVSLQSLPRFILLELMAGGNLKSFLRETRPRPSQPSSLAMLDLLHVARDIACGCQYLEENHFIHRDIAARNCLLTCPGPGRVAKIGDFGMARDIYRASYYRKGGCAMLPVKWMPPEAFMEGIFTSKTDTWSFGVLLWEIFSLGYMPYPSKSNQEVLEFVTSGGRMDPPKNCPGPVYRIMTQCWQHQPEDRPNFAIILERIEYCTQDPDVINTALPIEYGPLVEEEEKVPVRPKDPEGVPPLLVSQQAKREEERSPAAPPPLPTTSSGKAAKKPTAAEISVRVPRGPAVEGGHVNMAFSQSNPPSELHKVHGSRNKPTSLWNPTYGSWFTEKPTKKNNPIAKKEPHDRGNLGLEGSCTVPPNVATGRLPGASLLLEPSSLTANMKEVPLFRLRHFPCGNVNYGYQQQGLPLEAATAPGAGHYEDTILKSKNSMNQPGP
assay protocol: Ba/F3 cell proliferation assay, EML4-ALK v1 I1171N/D1203N
Format: cell-based
settings: Ba/F3 stable cells, 72 hours, CellTiter-Glo
readout kind: IC50

C[C@H]1Oc2cc(cnc2N)-c2c(c(C(=O)N3CC(F)(F)C3)nn2CC2CC2)Cc2cn(C)nc2-c2ccc(F)cc21; 50 to 500 nM
Cc1nc2c(s1)C(=O)c1c(c(C#N)nn1C)-c1cnc(N)c(c1)O[C@H](C)c1cc(F)ccc1-2; 50 to 500 nM

**Q:** I have this compound here, Cc1ccc2c(n1)-c1ccc(F)cc1[C@@H](C)Oc1cc(cnc1N)-c1c(C#N)nn(C(=O)N(C)C)c1C2 , and I need its recorded IC50.
**A:** 50 to 500 nM

**Q:** Input Cc1cc2n(n1)-c1c(F)cc(F)cc1[C@@H](C)Oc1cc(cnc1N)-c1c(c(C(=O)N(C)C)nn1CC1CC1)C2
**A:** 0.1 to 50 nM

**Q:** Input C[C@H]1Oc2cc(cnc2N)-c2c(c(C#N)nn2CC2CC2)Cc2cn(C)nc2-c2ccc(F)cc21
**A:** > 500 nM

**Q:** Input C[C@H]1Oc2cc(cnc2N)-c2c(c(C(=O)N(C)C3CC3)nn2CC2CC2)Cc2cn(C)nc2-c2ccc(F)cc21
**A:** 50 to 500 nM

**Q:** Input CCN(C)C(=O)c1nn(CC2CC2)c2c1Cc1cn(C)nc1-c1ccc(F)cc1[C@@H](C)Oc1cc-2cnc1N
**A:** 0.1 to 50 nM

**Q:** Input C[C@H]1Oc2cc(cnc2N)-c2c(c(C(N)=O)nn2CC2CC2)Cc2cccnc2-c2ccc(F)cc21
**A:** 0.1 to 50 nM

Entry source: patent US20250326769A1
